system: NCI-H226; test: NCI tumour cell line growth inhibition, 48 h
Activity calls are given as the source filed them. No stated cut-off is given here; in the data, active = GI50 up to about 1.1 µM and inactive = higher.
attribute measured: GI50

- COc1cc2c(cc1OC)C1Cc3cc(OC)c(OC)cc3C(C2)O1: > 100 µM (inactive)
- CN(C(=O)[C@@H](NC(=O)OC(C)(C)C)c1ccccc1)[C@H]1CCCC[C@@H]1N1CCCC1: > 100 µM (inactive)
- CCOC(=O)CCCc1cc(O)c2c(C)c3[nH]c4ccc(Cl)cc4c3c(C)c2n1: 19.1 µM (inactive)
- O=C(Nc1ccccc1)O/N=C(/CBr)c1ccccc1: 24 µM (inactive)
- COc1ccc(N2C(=O)CC(Cl)C2=O)cc1 (stereo not drawn): 20.5 µM (inactive)
- COc1ccc(C(Cc2ccccc2)C2NC(=S)NC2=O)cc1 (stereo not drawn): > 25 µM (inactive)
- CCCCc1ccc(Nc2ncc3ncn(COCCO)c3n2)cc1: 62.2 µM (inactive)
- CC(=O)Nc1sc(Br)cc1S(=O)(=O)c1ccc(Cl)cc1: 19.1 µM (inactive)
- Cc1nc(-c2ccccc2)cn2c1nc1ccccc12: 17.5 µM (inactive)
- COC12OCCN(C)C1=CC(=O)C1=NNC(C)C12 (stereo not drawn): > 100 µM (inactive)
- Oc1ccccc1CNCc1ccccc1O: > 100 µM (inactive)
- COC1=C(OC)C(=O)c2cc(SC)c(=O)c(SC)cc2C1=O: 13.5 µM (inactive)
- COc1ccc(O[C@H](COCc2ccccc2)C[C@@H]2COC(C)(C)O2)cc1: > 100 µM (inactive)
- CCOc1cc(NC(C)=O)ccc1C(=O)NN1C(=O)C(Oc2ccccc2)C1c1ccccc1 (stereo not drawn): 57.8 µM (inactive)
- Cc1[nH]c2ncn(/N=C/c3ccccc3)c(=N)c2c1Cc1ccccc1: 95.5 µM (inactive)
- O=c1c2cc(I)ccc2nc(SCc2nncs2)n1Cc1ccccc1: 23.8 µM (inactive)
- CCOC(=O)C1=C(c2ccccc2)N(C(C)=O)Cc2ccccc21: 14.9 µM (inactive)
- O=c1c(C(c2ccc(/C=C/c3ccccc3)cc2)c2c(O)oc3cc(O)ccc3c2=O)c(O)oc2cc(O)ccc12: > 100 µM (inactive)
- CC1C(=O)C23OC[C@@]1(C)C1(O)CC[C@@H](C)[C@]21CC3=O (stereo partly drawn): > 100 µM (inactive)
- Cn1c(-c2ccccc2)cc(-c2ccsc2)c1-c1ccsc1: 6.81 µM (inactive)
- CN1CCc2[nH]c3ccccc3c2C1: > 100 µM (inactive)
- CC(=O)Oc1ccc(C2COc3cc(OC(C)=O)c(OC(C)=O)cc3C2)cc1 (stereo not drawn): 20.6 µM (inactive)
- c1ccc2c(c1)cc1ccc3cccc4ccc2c1c34: > 100 µM (inactive)

----------
# Lookup of reported GI50 keyed by entry
test system: SR; assay: NCI tumour cell line growth inhibition, 48 h
Active and inactive are the calls of the source. Cut-off read from the data, not from the text of the source: active = GI50 up to about 1.1 µM and inactive = higher.
attribute measured: GI50

* N#Cc1nc(-c2cccs2)oc1N | > 100 µM (inactive)
* O=C(O)C1C2C=CC(O2)C1C(=O)Nc1ncccn1 (configuration not stated) | > 100 µM (inactive)
* O=C(/C=C/c1ccccc1)NC1C=Nc2ccc(Cl)cc2NC1=O (configuration not stated) | 7.01 µM (inactive)
* Cc1cc2c(cc1C)C(=O)/C(=C/c1ccccc1C(=O)O)C2 | 21.2 µM (inactive)
* COc1ccc(C2=NN(C(C)=O)c3nc4ccccc4nc3O2)cc1 | > 100 µM (inactive)
* O=C1CCCCC12CCC/C2=N\O (configuration not stated) | > 100 µM (inactive)
* CS(=O)(=O)Sc1ccc(Cl)cc1 | 3.59 µM (inactive)
* N#Cc1nc(-c2cccc(-c3nc(C#N)c(N)o3)n2)oc1N | > 100 µM (inactive)
* COc1cc(/C=C2\C[C@H]3[C@@H]4CCC5=CC(=O)CC[C@]5(C)[C@H]4CC[C@]3(C)C2=O)cc(OC)c1OC | 3.04 µM (inactive)
* CCCCn1c(C)c(C(=O)OCC)c2cc(OCc3ccc(C(=O)Nn4c(C)ccc4C)cc3)c(Br)cc21 | > 100 µM (inactive)
* C/C(=N\Nc1nc2ccccc2s1)c1cccc[n+]1[O-] | 23.9 µM (inactive)
* CCOC(=O)/C(=C\NCC(OCC)OCC)c1nc2ccccc2[nH]1 | 18.6 µM (inactive)
* CCOC(=O)CCNC(=O)c1cc(C)cc2c1Oc1c(cc(C)cc1C(=O)NCCC(=O)OCC)S2 | > 100 µM (inactive)
* CCOC(=O)c1[nH]c2cccc3c2c1CC[C@H](NC(=O)C(F)(F)F)C3=O | > 100 µM (inactive)
* COC(=O)C12Oc3ccc(-c4ccc5c(c4O)C(O)=C4C(=O)CC(C)C(O)C4(C(=O)OC)O5)c(O)c3C(O)=C1C(=O)CC(C)C2O (configuration not stated) | 0.0234 µM (active)
* COc1ccc(C=C(c2ccc(OCc3ccccc3)cc2)c2ccc(OCc3ccccc3)cc2)cc1 | > 100 µM (inactive)
* C/C(=N\O)c1cccc[n+]1Cc1ccccc1 | > 100 µM (inactive)

----------
Reported GI50 by item:
tested on: CAKI-1; assay: NCI tumour cell line growth inhibition, 48 h
Activity calls are given as the source filed them. Rule as the data show it: active = GI50 up to about 1.1 µM and inactive = higher.
attribute measured: GI50

* Clc1nc2n(c1/C=C/c1cccs1)CCS2 | 18.8 µM (inactive)
* CCOc1ccnc2c(OC)c(C)c3nc4ccccc4nc3c12 | > 100 µM (inactive)
* c1ccc2cc(CNCCOCCOCCNCc3ccc4ccccc4c3)ccc2c1 | 1.81 µM (inactive)
* CC(=O)OCC1OC(OC2CC3C(C)(C)C(O)CC[C@]3(C)C3CCC45CC4(CC[C@H]5C(C)CC(O)C4OC4(C)C)[C@]23C)C(O)C(O)C1O (stereo partly specified) | 8.87 µM (inactive)
* CC[n+]1c(/C=C/c2ccc(N(CCCl)CCCl)cc2)ccc2cc(I)ccc21 | 2 µM (inactive)
* Cc1cc(S(=O)(=O)Nc2nc3ccccc3[nH]2)c(S)cc1Cl | 45 µM (inactive)

----------
system: HCT-15
attribute measured: GI50

- Cc1nc2c(=S)[nH]ncc2[nH]1: > 100 µM
- ClCCCN1CCCCC1CCl (stereo not drawn): > 100 µM
- Cc1cc(S(=O)(=O)Nc2nc3ccccc3[nH]2)c(S)cc1Cl: > 100 µM

----------
system: HOP-92; assay: NCI tumour cell line growth inhibition, 48 h
The source made the active and inactive calls. Rule as the data show it: active = GI50 up to about 1.1 µM and inactive = higher.
attribute measured: GI50

* CC(=O)O[C@H]1CC[C@@]2(C)C(=CC[C@@H]3[C@@H]2CC[C@]2(C)c4c(cc(C#N)c(=N)n4C(C)=O)C[C@@H]32)C1 | 14.7 µM (inactive)
* C[C@]12C[C@H](c3ccccc3)Nc3ccccc3N1C(c1ccccc1)=NO2 | 30.1 µM (inactive)
* CCOC(OCC)C(CC)[Se]c1ccccc1[N+](=O)[O-] (stereo not given) | > 22.2 µM (inactive)
* O=C(Cn1nc(Br)c(Br)c1Br)c1ccccc1 | 20 µM (inactive)
* Cc1c(C)c(C)c(CSC(=N)N)c(C)c1C | 14 µM (inactive)
* Cc1sc(/N=C/c2c[nH]c3ccccc23)c(C#N)c1C | 45.7 µM (inactive)
* Cc1ccc(NC(=O)C(=O)CC(=O)c2c(C)[n+]([O-])c3ccccc3[n+]2[O-])cc1 | 21.9 µM (inactive)
* CC(C)S(=O)(=O)n1c(N)nc2ccc(/C(=N/O)c3ccccc3)cc21 [ENVIROXIME] | 3.61 µM (inactive)
* CC(C)=CCC[C@@H](C)C1=C(O)C(=O)C(C)=C(Nc2ccccc2Br)C1=O | 11.6 µM (inactive)
* CC(=O)Oc1ccc(C2COc3cc(OC(C)=O)c(OC(C)=O)cc3C2)cc1 (stereo not given) | 3.88 µM (inactive)
* N#C[BH2-][n+]1cn(C2CC(O)C(COP(=O)(O)OC3CC(n4cnc5c(=O)[nH]c(N)nc54)OC3CO)O2)c2nc(N)[nH]c(=O)c21 (stereo not given) | > 100 µM (inactive)
* CCOC(=O)CCC(NC(=O)c1ccc(Nc2nc3ccccc3n3cccc23)cc1)C(=O)OCC (stereo not given) | 32.1 µM (inactive)
* CC(C)(C)[Si](C)(C)Oc1ccc(C2CNC(=O)C23CCC(=O)N3Cc2ccccc2)cc1 (stereo not given) | 17.1 µM (inactive)
* O=C(O)C(=Cc1ccnc2ccccc12)C(=O)O | > 100 µM (inactive)
* CCCc1c(C(=O)OCC)[nH]c(-c2ccc(-c3[nH]c(C(=O)OCC)c(CCC)c3C(=O)OCC)s2)c1C(=O)OCC | 25.2 µM (inactive)

Value source: ChEMBL document CHEMBL1201862
